# assay explanation: Aqueous solubility determination
# Type: physicochemical
# test context: 0.01 M HCl, pH 2, Aqueous solubility pH 2.0, Table 4; pH 2.0; triplicate
measure name: solubility at 4 h (µg/mL)
Reply numerically in µg/mL, unit not repeated.

Entry Cc1cc(CCC#N)cc(C)c1Oc1cc(Nc2ccc(C#N)cc2)c(N)cc1C(F)(F)F [15a] : reported solubility at 4 h = ?
0.33

###

# assay explanation: Aqueous solubility determination
# Type: physicochemical
measure name: solubility at 4 h (µg/mL)
Reply numerically in µg/mL, unit not repeated.

Entry "Cc1cc(/C=C/C#N)cc(C)c1Oc1cc(Nc2ccc(C#N)cc2)c(N)cc1[N+](=O)[O-]" : reported solubility at 4 h = ?
0.29
